Values from ChEMBL document CHEMBL2086280

Below: a set of entries, each annotated with reported IC50.
Test system: K562
PROTOCOL NOTES: Cytotoxicity against human K562 cells after 6 days by MTS assay
COND: K562, 144 h

Below: 2 molecules and their reported IC50.
>  <MOLECULE>
C[C@@H](CO)CC[C@H](O)[C@@H](C)[C@H]1[C@@H](O)C[C@H]2[C@@H]3CC=C4C[C@@H](O)CC[C@]4(C)[C@H]3[C@H](O)C[C@]12C [HELOGENIN]

>  <ASSAY RESULT>
> 50 µg/mL

$$$$
>  <MOLECULE>
C[C@@H](CO)CC[C@@H](O)[C@@H](C)[C@H]1[C@@H](O)C[C@H]2[C@@H]3CC=C4C[C@@H](O)CC[C@]4(C)[C@H]3CC[C@]12C

>  <ASSAY RESULT>
> 50 µg/mL

$$$$

Next molecule, IC50 to be filled in.
Look up IC50 for this molecule: "CC(=O)OC[C@H](C)CC[C@@H](OC(C)=O)[C@@H](C)[C@H]1[C@@H](OC(C)=O)C[C@H]2[C@@H]3CC=C4C[C@@H](OC(C)=O)CC[C@]4(C)[C@H]3CC[C@]12C"
8.5 µg/mL
